Hi there, I'd appreciate the recorded DC50 for every entry that follows.
- targetDesc: KRas-G12D (Homo sapiens, UniProt P01116, G12D)
- Construct: insert the HiBiT tag onto the N-terminus of one or more of the endogenous KRas alleles; host or cells: AsPC-1 HiBiT-KRasG12D knock-in clone (one tagged allele, two untagged KRasG12D alleles)
- Sequence (P01116 1-188 isoform P01116-2 G12D): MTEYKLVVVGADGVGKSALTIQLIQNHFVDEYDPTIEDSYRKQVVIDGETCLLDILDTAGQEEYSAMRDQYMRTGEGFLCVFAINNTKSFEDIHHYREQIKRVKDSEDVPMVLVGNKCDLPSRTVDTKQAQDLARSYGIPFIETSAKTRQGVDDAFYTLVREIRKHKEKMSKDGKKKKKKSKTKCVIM
- procedureSummary: HiBiT Degradation Assay (G12D), AsPC-1 HiBiT-KRasG12D cells, 24 hr
- Format: cell-based
- conditionsUsed: AsPC-1 cells

Count: 6. Required value per item: DC50.
1. C#Cc1c(F)ccc2cc(O)cc(-c3ncc4c(N5CC6CCC(C5)N6)nc(OC[C@]56CCCN5[C@H](CN5CCN(CC7CCN(c8ccc9c(c8)n(C(C)C)c(=O)n9C8CCC(=O)NC8=O)CC7)CC5)CC6)nc4c3F)c12 (stereo partly drawn)
2. CCc1c(F)ccc2cc(O)cc(-c3ncc4c(N5CC6CCC(C5)N6)nc(OCCN5CCC(C)(CN6CCN(CC7CCN(c8ccc9c(c8)n(C)c(=O)n9C8CCC(=O)NC8=O)CC7)CC6)CC5)nc4c3F)c12 (stereo not drawn)
3. C#Cc1c(F)ccc2cc(O)cc(-c3ncc4c(N5CC6CCC(C5)N6)nc(OCCN5CCC(CC6CCN(CC7CCN(c8ccc9c(c8)n(C(C)C)c(=O)n9C8CCC(=O)NC8=O)CC7)CC6)CC5)nc4c3F)c12 (stereo not drawn)
4. C#Cc1c(F)ccc2cc(O)cc(-c3ncc4c(N5CC6CCC(C5)N6)nc(OCCN5CCN(CC6CCN(CC7CCN(c8ccc9c(c8)n(C)c(=O)n9C8CCC(=O)NC8=O)CC7)CC6)CC5)nc4c3F)c12 (stereo not drawn)
5. C#Cc1c(F)ccc2cc(O)cc(-c3ncc4c(N5CC6CCC(C5)N6)nc(OC[C@@H]5C[C@@H](OC6CCN(CC7CCN(c8cc(C)c9c(c8F)CN(C8CCC(=O)NC8=O)C9=O)CC7)CC6)CN5C)nc4c3F)c12 (stereo partly drawn)
6. C#Cc1c(F)ccc2cc(O)cc(-c3ncc4c(N5CC6CCC(C5)N6)nc(OCCN5CCC(CN6CC7(CCN(c8cccc9c8CN(C8CCC(=O)NC8=O)C9=O)CC7)C6)CC5)nc4c3F)c12 (stereo not drawn)

Solution:
1: < 5.1 µM; 2: < 5.1 µM; 3: < 5.1 µM; 4: < 5.1 µM; 5: < 5.1 µM; 6: 0.25 to 1 µM
